# Tested on: HOP-62 NSCLC
# ASSAY NOTES: NCI tumour cell line growth inhibition, 48 h
Measured TGI of individual entries

Query: Which value of TGI has been reported for COC(=O)C1CCC(C)CC1=O (stereo unspecified) in the records?
Result: > 100 µM

Query: Which value of TGI has been reported for Cc1ccc(S(=O)(=O)N/N=c2/sc3ccccc3n2C)cc1 in the records?
Result: > 100 µM

Query: Which value of TGI has been reported for Cc1ccc(S(=O)(=O)NC(=O)Nc2ccc(C(=O)O)cc2)cc1 in the records?
Result: > 100 µM

Query: Which value of TGI has been reported for O=C(Nc1nc(=S)[nH][nH]1)C(=O)C(c1cnc2ccc([N+](=O)[O-])cc2n1)[N+](=O)[O-] (stereo unspecified) in the records?
Result: > 100 µM

Query: Which value of TGI has been reported for Cn1c(CO)ccc1-c1ccc(-c2ccc(CO)[se]2)[se]1 in the records?
Result: 40.8 µM

Query: Which value of TGI has been reported for CC(C)(C)O/N=C/c1cc(NC(=S)c2ccccc2)ccc1Cl in the records?
Result: 37.1 µM

Query: Which value of TGI has been reported for Cc1ccccc1Nc1cc(O)c2c(=O)cc(-c3ccccc3)oc2c1 in the records?
Result: > 100 µM

Query: Which value of TGI has been reported for C[C@]12CCc3nc(Nc4ccc(O)cc4)sc3C1=CC[C@@H]1[C@@H]2CC[C@]2(C)/C(=N/NC(N)=S)CC[C@@H]12 in the records?
Result: 4.21 µM

Query: Which value of TGI has been reported for O=C1C=CC2(O)OCC3C=C4O[C@@H]5OC6(CCCCC6)O[C@@H]5C4[C@@H]2[C@@H]13 (stereo partly specified) in the records?
Result: > 100 µM

Query: Which value of TGI has been reported for CN1CCCc2nc3ccccc3n2C1 in the records?
Result: > 100 µM

Query: Which value of TGI has been reported for CC(=O)c1c(-c2ccc(Cl)cc2)c(C#N)c(=S)n(C2OC(CO)C(O)C(O)C2O)c1C (stereo unspecified) in the records?
Result: > 100 µM

###

# Test system: MCF7 breast
# ASSAY NOTES: NCI tumour cell line growth inhibition, 48 h; in the data active = GI50 below about 0.43 µM; inactive = the rest
Bench note: report the call from label 1 = active, label 0 = inactive

Some entries whose results are on file:
COMPOUND	ASSIGNED CLASS
CCN1C(=O)N(CC)C2C1NC(=S)N2/N=C/C=C/c1ccccc1 (stereo not drawn)	label 1
O=C1c2cccc3c(N4CCOCC4)ccc(c23)C(=O)N1CCN1CCN(CCCCCN2CCN(CCN3C(=O)c4cccc5c(N6CCOCC6)ccc(c45)C3=O)CC2)CC1	label 0
Cc1ccccc1Nc1cc(O)c2c(=O)cc(-c3ccccc3)oc2c1	label 0
S=C(Sc1ccc(Cl)cc1)Sc1ccc(Cl)cc1	label 0
COC(=O)[C@]12CC[C@@H](C)[C@H](C)[C@@H]1C1=CC[C@@H]3[C@@]4(C)C(C=O)=C[C@@](C)(COS(C)(=O)=O)C4=CC[C@@]3(C)[C@]1(C)CC2	label 1

Moving on to the next compound.
Query: Short answer needed: outcome of this test for NC1=NC(c2ccccc2Cl)c2c(n[nH]c2N)N1 (stereo not drawn) ?
Result: label 0

###

# System: NCI-H226 lung
# ASSAY NOTES: NCI tumour cell line growth inhibition, 48 h
Measured TGI of individual entries

                                   compound  property_name  experimental_result
0  NC1=NC(c2ccccc2Cl)c2c(n[nH]c2N)N1 (configuration not stated)            TGI             > 100 µM
1  CN(C)CCNC(=O)Nc1ccc(N(C)c2ccnc(Nc3ccc(CS(C)(=O)=O)cc3)n2)cc1            TGI              > 25 µM
2  COC(=O)c1c(O)ccc2c1c1c(n2Cc2ccc(OC)cc2)C(=O)c2ccccc2C1            TGI             > 100 µM
3  CC(=O)OC12c3ccccc3C(c3ccccc31)C1C(=O)N(N=C(C)C)C(=O)C12 (configuration not stated)            TGI             > 100 µM
4  COC(=O)Nc1cc(OCCCOC(C)=O)c2[nH]c(C(=O)OC)cc2c1C[C@H](O)CO            TGI             > 100 µM

Query: Which value of TGI has been reported for CC(=O)O[C@H]1CC[C@@H](OC(C)=O)[C@H]2[C@H](O)[C@H](O)[C@@H]1n1c(=O)n(-c3ccccc3)c(=O)n12 in the records?
Result: > 100 µM

Query: Which value of TGI has been reported for O=C(O)CCCc1ccc2c(c1)C(C(=O)O)CC2 (configuration not stated) in the records?
Result: > 100 µM

Query: Which value of TGI has been reported for CN(Cc1cnc2nc(N)nc(N)c2n1)c1ccc(C(=O)NC(CCC(=O)O)C(=O)O)c2ccccc12 (configuration not stated) in the records?
Result: > 1000 µM
